- System: NCI-H522 lung
- assay.explanation: NCI tumour cell line growth inhibition, 48 h
measured.property: TGI

Known results for molecules:
{"molecule": "Cc1c(C(Cc2ccccc2N(C)C(=O)/C=C\\C(=O)O)c2c[nH]c3ccccc23)c2ccccc2n1C (centres undefined)", "TGI": "28.6 µM"}
{"molecule": "N#CC(C(=O)CCCC(=O)Nc1ccccc1[N+](=O)[O-])c1c(Cl)cccc1Cl (centres undefined)", "TGI": "> 100 µM"}
{"molecule": "COc1cc(/C=C2\\CC3C4CC=C5CC(OC(C)=O)CC[C@]5(C)C4CC[C@]3(C)C2=O)ccc1OCCN1CCCC1 (some centres undefined)", "TGI": "26.6 µM"}

// below: TGI requested for another molecule
*Q* Would you kindly share the measured TGI for C[C@@H]1CN2[C@H]3[C@@H]1CC[C@]31CCC(=O)O[C@]1(C)[C@H]1CC[C@H]3CCC=C3[C@@H]12 ?
*A* > 30 µM

* * *

Measured TGI accompanies every entry in the list below.
- Test system: 786-0 renal
- assay.explanation: NCI tumour cell line growth inhibition, 48 h

{"molecule": "CCCCNC(=O)OCCN=c1c2ccccc2ccc2ccccc12", "test.system": "786-0 renal", "TGI": "> 100 µM"}
{"molecule": "C=CCC1(O)c2ccccc2C(=O)c2c(OCC(=O)OCC)ccc(OCC(=O)OCC)c21 (stereo not drawn)", "test.system": "786-0 renal", "TGI": "> 100 µM"}

*Q* Would you kindly share the measured TGI for Cn1cc(-c2ccc3nc(-c4ccc(CC(=O)Nc5cc(C(C)(C)C)no5)cc4)cnc3c2)cn1 ?
*A* > 3 µM

*Q* Same question for O=C(NCc1cn(Cc2cccc(Oc3ccccc3)c2)nn1)c1cccnc1Nc1ccc(F)cc1 please.
*A* > 100 µM

*Q* Same question for COC1=C(C(c2cc(OC)c(OC)c(OC)c2)c2cc3c(cc2OC)OCO3)C(=O)OC1 (stereo not drawn) please.
*A* 65.4 µM

*Q* Same question for CCC(=C(c1ccc(OCCN2CCCCC2)cc1)c1ccc(OCCN2CCCCC2)cc1)c1ccc(Cl)cc1 please.
*A* 5.09 µM

*Q* Same question for O=c1nc2n(-c3cccc(Cl)c3)c3ccc([N+](=O)[O-])cc3cc-2c(=O)[nH]1 please.
*A* 9.5 µM

*Q* Same question for CC1CCCCCC(=O)c2c(O)cc(O)cc2CC(=O)O1 (stereo not drawn) please.
*A* > 100 µM

*Q* Same question for COc1ccc2c(O)c(Oc3ccc(Cl)cc3)c(=O)oc2c1 please.
*A* > 100 µM

*Q* Same question for N=c1sc2ccccc2n1CCS (tested in a mixture with another compound) please.
*A* 35.8 µM

*Q* Same question for Cc1c(Cl)cccc1C(=O)Nc1nc2c(s1)CN(C(=O)Nc1cccc(C(F)(F)F)c1)CC2 please.
*A* > 25.3 µM

*Q* Same question for CN1CCN(c2cc3[nH]c4cc(O)cc(O)c4c(=O)c3cc2N)CC1 please.
*A* > 100 µM

*Q* Same question for O=C1CSCC(=O)Nc2ccccc2N1 please.
*A* > 100 µM

* * *

Measured TGI accompanies every entry in the list below.
- System: U251 CNS
- assay.explanation: NCI tumour cell line growth inhibition, 48 h

Known results for compounds:
{"compound": "O=C(Cc1ccccc1)NN1C(=O)C(Cl)C1c1ccc(Cl)cc1 (stereo not drawn)", "TGI": "> 100 µM"}
{"compound": "O=C1c2ccccc2C(=O)N1/N=C1/SC(=Nc2ccccc2)C(=Nc2ccccc2)N1c1ccccc1", "TGI": "> 100 µM"}

// below: TGI requested for another compound
*Q* Would you kindly share the measured TGI for Cc1c(Cl)cccc1C(=O)Nc1nc2c(s1)CN(C(=O)Nc1cccc(C(F)(F)F)c1)CC2 ?
*A* > 50 µM

* * *

Measured TGI accompanies every entry in the list below.
- System: SK-MEL-28 melanoma
- assay.explanation: NCI tumour cell line growth inhibition, 48 h

Known results for compounds:
{"compound": "COc1cccc2c1C(=O)c1c(O)c3c(c(O)c1C2=O)C[C@@](O)(C(=O)CO)CC3OC1CC(N(C)CCOCC(OC(C)=O)OC(C)=O)C(O)C(C)O1 (stereo partly specified)", "test.system": "SK-MEL-28 melanoma", "TGI": "> 0.01 µM"}
{"compound": "Cc1c(Cl)cccc1C(=O)Nc1nc2c(s1)CN(C(=O)Nc1cccc(C(F)(F)F)c1)CC2", "test.system": "SK-MEL-28 melanoma", "TGI": "> 50 µM"}
{"compound": "COc1ccc2c(-c3csc(-c4c[nH]c5ccc(Br)cc45)n3)c[nH]c2c1", "test.system": "SK-MEL-28 melanoma", "TGI": "> 100 µM"}
{"compound": "O=C1NC(=O)C(c2c[nH]c3ccccc23)=C1c1c[nH]c2ccccc12", "test.system": "SK-MEL-28 melanoma", "TGI": "> 25 µM"}
{"compound": "O=C1CSCC(=O)Nc2ccccc2N1", "test.system": "SK-MEL-28 melanoma", "TGI": "> 100 µM"}

*Q* Would you kindly share the measured TGI for COCCN(C(=O)c1ccccc1)C1CCC2(SCCS2)c2[nH]c3ccccc3c21 (stereo unspecified) ?
*A* > 100 µM

* * *

- System: LXFL 529 NSCLC
- assay.explanation: NCI tumour cell line growth inhibition, 48 h
measured.property: TGI

Known results for molecules:
{"molecule": "O=P1(NCCCl)OCCCN1CCCl (centres undefined)", "TGI": "> 500 µM"}
{"molecule": "CC(=O)OC(C)(C)C1CC[C@]2(C)/C=C/C(C)C[C@@H](O)/C=C(\\C)CC(O)C12 (some centres undefined)", "TGI": "> 100 µM"}
{"molecule": "Nc1ccccc1N", "TGI": "> 100 µM"}

// below: TGI requested for another molecule
*Q* Would you kindly share the measured TGI for O=C(O)CN1CCSc2ccccc2CN(CC(=O)O)CCSc2ccccc2C1 ?
*A* > 100 µM

* * *

Measured TGI accompanies every entry in the list below.
- Tested on: IGROV1 ovarian
- assay.explanation: NCI tumour cell line growth inhibition, 48 h

Known results for compounds:
{"compound": "COC(=O)c1cc2ccc(O)c(O)c2cn1", "test.system": "IGROV1 ovarian", "TGI": "33.2 µM"}
{"compound": "OCC(O)COCn1cc(Cn2ncc3c(SCc4ccccc4)ncnc32)nn1 (stereo not given)", "test.system": "IGROV1 ovarian", "TGI": "> 100 µM"}
{"compound": "O=C(O)c1ccccc1CN1CCCC(C(=O)O)C1 (stereo not given)", "test.system": "IGROV1 ovarian", "TGI": "> 100 µM"}
{"compound": "COc1ccc(/C=C/C(=O)c2cc(OC)cc(OC)c2)cc1", "test.system": "IGROV1 ovarian", "TGI": "25.7 µM"}
{"compound": "Cn1cc(-c2ccc3nc(-c4ccc(CC(=O)Nc5cc(C(C)(C)C)no5)cc4)cnc3c2)cn1", "test.system": "IGROV1 ovarian", "TGI": "> 1.21 µM"}

// below: TGI requested for another compound
*Q* Would you kindly share the measured TGI for O=c1[nH]c(=S)[nH]cc1CN1CCOCC1 ?
*A* > 100 µM

* * *

- Tested on: HOP-62 NSCLC
- assay.explanation: NCI tumour cell line growth inhibition, 48 h
Measured TGI accompanies every entry in the list below.

Known results for compounds:
{"compound": "CC1(OCc2ccccc2)C(=O)N2C1NCC2(C)C (stereo not drawn)", "measured.property": "TGI", "result": "> 100 µM"}
{"compound": "O=c1[nH]c(=S)[nH]cc1CN1CCOCC1", "measured.property": "TGI", "result": "> 100 µM"}

*Q* Would you kindly share the measured TGI for CC(C)=CC[C@@H]1CC2(CC=C(C)C)C(=O)C(OC3(C(=O)c4ccccc4)C(=O)C4(CC=C(C)C)C[C@@H](CC=C(C)C)C(C)(C)C(CC=C(C)C)(C4=O)C3=O)(C(=O)c3ccccc3)C(=O)C(CC=C(C)C)(C2=O)C1(C)C (stereo partly drawn) ?
*A* 4 µM

* * *

- System: SK-OV-3 ovarian
- assay.explanation: NCI tumour cell line growth inhibition, 48 h
measured.property: TGI

Known results for molecules:
{"molecule": "COC(=O)c1c2c(c(C)[n+]([O-])c1C)C(=O)C(NCc1ccc(OC)cc1)=CC2=O", "result": "15.8 µM"}
{"molecule": "CC(C)=CC[C@@H]1CC2(CC=C(C)C)C(=O)C(OC3(C(=O)c4ccccc4)C(=O)C4(CC=C(C)C)C[C@@H](CC=C(C)C)C(C)(C)C(CC=C(C)C)(C4=O)C3=O)(C(=O)c3ccccc3)C(=O)C(CC=C(C)C)(C2=O)C1(C)C (stereo partly drawn)", "result": "4 µM"}

*Q* Would you kindly share the measured TGI for O=C(CCC(=O)c1ccsc1)c1ccsc1 ?
*A* > 100 µM

* * *

- System: ACHN renal
- assay.explanation: NCI tumour cell line growth inhibition, 48 h
Measured TGI accompanies every entry in the list below.

Known results for molecules:
{"molecule": "Cc1cccc(Nc2nc3ccccc3nc2NS(=O)(=O)c2ccc(N)cc2)c1", "TGI": "> 100 µM"}
{"molecule": "C=C(Br)C(C)(Cl)CCC(Br)C(C)(C)Br (configuration not stated)", "TGI": "> 100 µM"}
{"molecule": "CN1CCN(c2cc3[nH]c4cc(O)cc(O)c4c(=O)c3cc2N)CC1", "TGI": "> 100 µM"}

*Q* Would you kindly share the measured TGI for CC(=O)/C(=C\c1ccc(Cl)cc1)c1ccccc1 ?
*A* > 70 µM

*Q* Same question for CC(=O)N1C=Cc2c(c(C)c3c([nH]c4ccccc43)c2C)C1 please.
*A* 11.3 µM

*Q* Same question for Sc1cccc2cccnc12 please.
*A* 12.8 µM

*Q* Same question for COc1ccc(C(=O)C(C(=O)CCC(=O)Nc2ccc(Cl)c(Cl)c2)c2ccc(OC)cc2)cc1 (configuration not stated) please.
*A* > 100 µM

Attribution: PubChem BioAssay (NCI)
